# Test system: SNB-19
# experimentSummary: NCI tumour cell line growth inhibition, 48 h
The source made the active and inactive calls. Rule as the data show it: active = GI50 up to about 1.1 µM and inactive = higher.
Labels: active, inactive

> print(dat)
                                    compound       cat
 1  COC(=O)C1C(OCc2ccccc2)C2CCC1(OC)C=C2C (stereo not given)  inactive
 2  CC(C)[Si](OC1=C(C(=O)N(C)c2ccccc2Cl)CCC1)(C(C)C)C(C)C  inactive
 3  COc1ccccc1NC(=O)C1=C(C)NC(C)=C(C(=O)Nc2ccccc2OC)C1c1ccc(C2C(C(=O)Nc3ccccc3OC)=C(C)NC(C)=C2C(=O)Nc2ccccc2OC)cc1  inactive
 4            c1ccc(-c2cccc(-c3ccccn3)n2)nc1    active
 5  COC(=O)C1CCC2(CC1)NC(=O)NC2=O (stereo not given)  inactive
 6          COc1ccc2oc3c(ccc[n+]3C)c(=O)c2c1  inactive
 7  O=C(c1ccccc1)C(c1ccccc1)C1(O)C(=O)Nc2ccccc21 (stereo not given)  inactive
 8  CC1(C)OCC(C(O)C2OC(C)(C)OC2/C=N\O)O1 (stereo not given)  inactive
 9  COc1cc(/C=N/NC(=O)c2ccc(NC(C)=O)cc2OC)ccc1O  inactive
10  COc1cc2c(c(OC)c1OC)-c1ccc(SC)c(=O)cc1[C@@H](OC(=O)c1ccncc1)CC2    active

* * *

# Test system: LXFL 529
# experimentSummary: NCI tumour cell line growth inhibition, 48 h
Activity calls are given as the source filed them. Cut-off read from the data, not from the text of the source: active = GI50 up to about 1.1 µM and inactive = higher.
Labels: active, inactive

compound	cat
COc1cc(-c2cc(O)c3ccccc3n2)cc(OC)c1OC	inactive
COC(=O)C(C(=O)C(=O)Nc1c(Cl)cc([N+](=O)[O-])cc1Cl)c1csc(-n2nc(C3=CCCCC3)cc2-c2ccccc2)n1 (stereo not drawn)	inactive
CC12CC[C@@H](C(C)(C)O)C1[C@@H](O)CC1(C)C2CCC2[C@@]3(C)CC[C@H](O)C(C)(C)C3C(O)C[C@]21C (stereo partly drawn)	inactive
O=C(C/C(CCC(=O)N(Cc1ccccc1)Cc1ccccc1)=N/Nc1ccc([N+](=O)[O-])cc1[N+](=O)[O-])c1ccccc1	inactive
N#CC(/C(=N/NC(=O)C(=O)NN)C(=O)Nc1nc([N+](=O)[O-])cs1)c1ccc(Cl)cc1 (stereo not drawn)	inactive
CC(=O)OC1(C#N)CC2OC1C1N=NN(C(=O)OC(C)(C)C)C21 (stereo not drawn)	inactive
O=C(O)c1cc(-c2ccccc2O)nc2ccccc12	inactive
Cc1c2ccncc2c(C)c2c1[nH]c1ccc(O)c(OCC(F)(F)F)c12	inactive
CN(C)CCN(C)C(=O)c1cccc2cccc(C(=O)O)c12	inactive
C=CC[P@]1(=O)O[C@H](c2ccccc2)[C@H](C)N1C	inactive
Cc1ccc(C(=O)NC(C)C)cc1/N=N/N(C)C	inactive
CC1=C2CCCC2=C/C(=N/Nc2ccc([N+](=O)[O-])cc2[N+](=O)[O-])CC1	inactive
CCOC(=O)C(C)OC(=O)c1ccc(C)cc1 (stereo not drawn)	inactive
CC(=O)O[C@H]1C(=O)[C@@]2(C)C(C(OC(=O)c3ccccc3)[C@]3(O)C[C@H](OC(=O)C(OC(=O)CCCC(=O)NCCCN(C)C)C(NC(=O)c4ccccc4)c4ccccc4)C(C)=C1C3(C)C)C1(OC(C)=O)COC1C[C@@H]2O (stereo partly drawn)	active
COc1ccc(-c2cc(-c3ccco3)c(C#N)c(=O)[nH]2)cc1	inactive
Sc1nnc(COc2ccc(Cl)cc2)o1	inactive
COc1ccc(CNc2nc3ccccc3nc2-c2cccs2)cc1OC	inactive
COc1ccccc1NC(=O)C1=C(C)NC(C)=C(C(=O)Nc2ccccc2OC)C1c1ccc(C2C(C(=O)Nc3ccccc3OC)=C(C)NC(C)=C2C(=O)Nc2ccccc2OC)cc1	inactive

The reported numbers originate from ChEMBL document CHEMBL1201862.
